System: MS2 coat protein
measurement-description: apparent KD of MS2 coat protein; designed switch direction (-1 OFF switch, 1 ON switch): -1; higher = weaker reporter binding
condition-info: input ligand: none
endpoint-label: apparent KD of MS2 coat protein (nM)
Respond with the bare value in nM.

## Task Request body: readout apparent KD of MS2 coat protein, system MS2 coat protein, query CGAUGCUCGUGUCCACAUGAGGAUCACCCAUGUCGAGUUAGCGAGGAUAUCGGUAGCACAUAGCACGAGAAGGCGCGAACCUGA [Ex NG3 #28] (Eterna round: R96, puzzle: Exclusion NG 3) . Return the value.
## Result 22

## Task Request body: readout apparent KD of MS2 coat protein, system MS2 coat protein, query GGUCAGAUGGUAGGAUAUCCAUAUCGAGUGACCCUUUCAUAACAUGAGGAUCACCCAUGUCGGUGGGAGAAGGGUCGUACGGCG [salish99_ExNG02_R04_020] (Eterna round: R96, puzzle: Exclusion NG 2) . Return the value.
## Result 23.6

## Task Request body: readout apparent KD of MS2 coat protein, system MS2 coat protein, query AGCUCUGCAGGAUAUGCCCGGGAUAACAUGAGGAUCACCCAUGUGACUGAUUGUUAUUCUGCAGAAGGGCAUGGGA [JL-EX5-4.15 ViennaUCT mod] (Eterna round: R97, puzzle: Exclusion 5) . Return the value.
## Result 637

## Task Request body: readout apparent KD of MS2 coat protein, system MS2 coat protein, query UUUUUAUCUGAAGGAUAUACUUAACAUGAGGAUCACCCAUGUGGUGUUGUGAGUGAGUGAGUUUAGUAGAAGGUCAAUUAUUUU [JMF's solution 19] (Eterna round: R96, puzzle: Exclusion NG 2) . Return the value.
## Result 380

## Task Request body: readout apparent KD of MS2 coat protein, system MS2 coat protein, query CAGCUGAAUGUCAGGAUAUCUAGAGCUGCGGCUCUAGAGAAGGGACAUGAGGAUCACCCAUGUCACUCCAGCUG [BmEx4/3-B3] (Eterna round: R97, puzzle: Brourd's mod of Exclusion 4) . Return the value.
## Result 16.4
